B1: TIA1 (parent)
chain: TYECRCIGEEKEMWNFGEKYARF

variants of: B1; assay: protein stability index of a GFP-peptide fusion (GPS, HEK-293T) (PSI 1-6); higher = more stable; conditions: c terminus: native;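 further: lentivirally expressed fusions sorted by FACS into six bins by GFP to DsRed ratio, PSI derived from sequencing read proportions per bin multiplied by bin number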
Label YES for high-side protein stability index (at or above 2) and NO for low-side protein stability index (below it).

>>> assigned_label("E12Q")
"YES"
>>> assigned_label("Y2E")
"YES"
>>> assigned_label("F16A")
"YES"

API: above_or_equal(metric=protein stability index, cutoff=2) for item `Y20I` NO

Decide: protein stability index of `C6N` >= 2? YES

Kindly determine if protein stability index recorded for `Y2I` is above or exactly 2. YES
